I'd appreciate it if you could supply inhibition at 10 µM values for the items below.
- testedSystem: human B1R receptor (Homo sapiens, UniProt P46663)
- Construct: host or cells: CHO K1 cells (Chinese hamster ovary), stably transfected
- Sequence (P46663 whole entry): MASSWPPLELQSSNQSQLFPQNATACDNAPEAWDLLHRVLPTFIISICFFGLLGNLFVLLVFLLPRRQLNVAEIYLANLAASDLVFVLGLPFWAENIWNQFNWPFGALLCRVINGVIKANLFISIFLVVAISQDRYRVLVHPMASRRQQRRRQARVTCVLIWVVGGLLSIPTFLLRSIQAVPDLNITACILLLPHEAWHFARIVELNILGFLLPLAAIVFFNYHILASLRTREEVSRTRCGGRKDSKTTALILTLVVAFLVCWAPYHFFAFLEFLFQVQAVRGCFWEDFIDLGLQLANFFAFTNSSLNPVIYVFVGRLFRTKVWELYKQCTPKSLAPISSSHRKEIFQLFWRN
- assayMethodText: Functional study on the bradykinin receptor 1 (B1R), FLIPR Ca2+ assay, hB1R cells
- Format: cell-based
- reportedConditions: CHO-K1, test substance 10 μM, agonist Lys-Des-Arg9-bradykinin 0.5 nM, % inhibition compared with the maximum achievable inhibition, read-out: B1R Antagonism, human [10 μM] % Inhibition
Numbers only, in %.

| compound | inhibition at 10 µM (%) |
| --- | --- |
| CN(CCc1ccncc1)C(=O)COCC1CCCCN1S(=O)(=O)c1c(Cl)cc(Cl)cc1Cl (stereo not drawn) | 97.8 |
| COc1cc(C)c(S(=O)(=O)N2CCCC2COCC(=O)N2CCN(c3ccccc3OC)CC2)c(C)c1 (stereo not drawn) | 96.3 |

I'm hoping you can list inhibition at 10 µM for every compound here, please.
1. O=C(COCC1CCCCN1S(=O)(=O)c1c(Cl)cccc1Cl)NCc1ccc(CN2CCOCC2)cc1 (stereo not drawn)
2. CN1CCN(c2ccc(CNC(=O)COCC3CCCN3S(=O)(=O)c3c(Cl)cc(Cl)cc3Cl)cc2)CC1 (stereo not drawn)
3. COc1cc(OC)cc(N2CCN(C(=O)COCC3CCCCN3S(=O)(=O)c3c(C)cc(OC)cc3C)CC2)c1 (stereo not drawn)
4. COc1cc(C)c(S(=O)(=O)N2CCCCC2COCC(=O)N2CCCC2CN2CCCCC2)c(C)c1 (stereo not drawn)
5. COc1cc(C)c(S(=O)(=O)N2CCCC2COCC(=O)N2CCN(c3ncccn3)CC2)c(C)c1 (stereo not drawn)
6. CN1CCC(N2CCN(C(=O)COCC3CCCCN3S(=O)(=O)c3ccc(Cl)c(Cl)c3)CC2)CC1 (stereo not drawn)

result:
1: 75.8; 2: 84.4; 3: 105; 4: 93; 5: 52; 6: 83.3

###

- testedSystem: B1R receptor of the rat (Rattus norvegicus, UniProt P97583)
- Construct: host or cells: CHO K1 cells (Chinese hamster ovary), stably transfected
- assayMethodText: Functional study on the bradykinin receptor 1 (B1R), FLIPR Ca2+ assay, rB1R cells
- Type: cell-based
- reportedConditions: CHO-K1, test substance 10 μM, agonist Des-Arg9-bradykinin 100 nM, % inhibition compared with the maximum achievable inhibition, read-out: B1R Antagonism, rat [10 μM] % Inhibition
metricName: inhibition at 10 µM (%)
Numbers only, in %.

| compound | recordedMeasurement |
| --- | --- |
| COc1cc(C)c(S(=O)(=O)N2CCCC2COCC(=O)N2CCN(CCN(C(C)C)C(C)C)CC2)c(C)c1 (stereo not drawn) | 93.4 |
| Cc1cccc(CC2CCCCN2C(=O)COCC2CCCCN2S(=O)(=O)c2c(Cl)cccc2Cl)n1 (stereo not drawn) | 93.5 |

Below are some compounds; for each one, tell me its inhibition at 10 µM.
1. COc1cc(C)c(S(=O)(=O)N2CCCCC2COCC(=O)N2CCN(c3ncnc4ccsc34)CC2)c(C)c1 (stereo not drawn)
2. Cc1cc(C)c(S(=O)(=O)N2CCCCC2COCC(=O)N2CCC(c3nc4cc(C)ccc4[nH]3)CC2)c(C)c1 (stereo not drawn)
3. COc1cccc(N2CCN(C(=O)COCC3CCCCN3S(=O)(=O)c3c(Cl)cccc3Cl)CC2)c1 (stereo not drawn)

result:
[97.1, 114, 100]

Hi team, please reply with inhibition at 10 µM for each item in this list.
1. CN(C(=O)COCC1CCCCN1S(=O)(=O)c1c(Cl)cccc1Cl)[C@H]1CCN(Cc2ccccc2)C1 (stereo partly drawn)
2. COc1cc(C)c(S(=O)(=O)N2CCCCC2COCC(=O)N2CCN(CCN(C(C)C)C(C)C)CC2)c(C)c1 (stereo not drawn)
3. Cc1cc(Br)cc(C)c1S(=O)(=O)N1CCCCC1COCC(=O)N1CCN(c2ccncc2)CC1 (stereo not drawn)

result:
1. 101
2. 102
3. 99.1

Please state inhibition at 10 µM for every compound in the list that follows.
1. O=C(COCC1CCCCN1S(=O)(=O)c1c(Cl)cccc1Cl)N1CCN(Cc2ccc(Cl)c(Cl)c2)CC1 (stereo not drawn)
2. COc1cc(C)c(S(=O)(=O)N2CCCC2COCC(=O)N2CCN(C3CCN(C)CC3)CC2)c(C)c1 (stereo not drawn)
3. COc1cc(C)c(S(=O)(=O)N2CCCCC2COCC(=O)N2CCN(C3CCN(C)CC3)CC2)c(C)c1.Cl.Cl (stereo not drawn) [Example 97, dihydrochloride]

result:
1. 100
2. 100
3. 98.2

Each compound below has a reported value. Please supply its inhibition at 10 µM.
1. Cc1nccn1-c1ccc(NC(=O)COCC2CCCCN2S(=O)(=O)c2c(Cl)cccc2Cl)cc1 (stereo not drawn)
2. O=C(COCC1CCCN1S(=O)(=O)c1c(Cl)cc(Cl)cc1Cl)NCc1ccc(N2CCCCC2)cc1 (stereo not drawn)
3. COc1cc(C)c(S(=O)(=O)N2CCCCC2COCC(=O)N2CCN(C3CCOCC3)CC2)c(C)c1 (stereo not drawn)
4. Cc1cc(C)c(S(=O)(=O)N2CCCCC2COCC(=O)N2CCC(N3CCCC3)CC2)c(C)c1 (stereo not drawn)
5. COc1ccc(N2CCN(C(=O)COCC3CCCCN3S(=O)(=O)c3ccc(Cl)c(Cl)c3)CC2)cc1 (stereo not drawn)
6. O=C(COCC1CCCCN1S(=O)(=O)c1ccc(Cl)c(Cl)c1)NCC1CCCN(Cc2ccccc2)C1 (stereo not drawn)
7. Cc1cc(C)c(S(=O)(=O)N2CCCCC2COCC(=O)N2CCCC2Cc2ccccn2)c(C)c1 (stereo not drawn)

result:
1. 97.3
2. 95.2
3. 101
4. 98.9
5. 0
6. 42.2
7. 96.9

###

- testedSystem: human B1R receptor (Homo sapiens)
- Construct: host or cells: CHO K1 cells (Chinese hamster ovary), stably transfected
- assayMethodText: Functional study on the bradykinin receptor 1 (B1R), FLIPR Ca2+ assay, hB1R cells
- Type: cell-based
- reportedConditions: CHO-K1, test substance 10 μM, agonist Lys-Des-Arg9-bradykinin 0.5 nM, % inhibition compared with the maximum achievable inhibition, read-out: B1R Antagonism, human [10 μM] % Inhibition
Counter-ions that a name gives are not always drawn.
Please respond with reported inhibition at 10 µM for every item in the list.

| molecule | testedSystem | recordedMeasurement |
| --- | --- | --- |
| CN1CCC(N2CCN(C(=O)COCC3CCCCN3S(=O)(=O)c3ccccc3C(F)(F)F)CC2)CC1 (stereo not drawn) | human B1R receptor (Homo sapiens) | 104% |
| COc1ccc(S(=O)(=O)N2CCCCC2CCOCC(=O)N2CCC(CCN3CCCCC3)CC2)cc1 (stereo not drawn) | human B1R receptor (Homo sapiens) | 50% |
| CN(C)CCCN1CCN(C(=O)COCC2CCCN2S(=O)(=O)c2ccc(Cl)c(Cl)c2)CC1 (stereo not drawn) | human B1R receptor (Homo sapiens) | 42.1% |
| O=C(COCC1CCCCN1S(=O)(=O)c1c(Cl)cccc1Cl)N(Cc1ccccc1)c1ccccn1 (stereo not drawn) | human B1R receptor (Homo sapiens) | 70.4% |
| Cc1nccn1-c1ccc(NC(=O)COCC2CCCCN2S(=O)(=O)c2c(Cl)cccc2Cl)cc1 (stereo not drawn) | human B1R receptor (Homo sapiens) | 97.2% |
| COc1cc(C)c(S(=O)(=O)N2CCCCC2COCC(=O)N2CCC(N3CCn4cccc4C3)CC2)c(C)c1 (stereo not drawn) | human B1R receptor (Homo sapiens) | 106% |

Parameters: items (list). Returns: inhibition at 10 µM for each item.
1. COc1cc(C)c(S(=O)(=O)N2CCCCC2COCC(=O)N2CCN(Cc3ccc(C)cc3)CC2)c(C)c1 (stereo not drawn)
2. CN1CCC(N2CCN(C(=O)COCC3CCCCN3S(=O)(=O)c3cc(Cl)c(Cl)cc3Cl)CC2)CC1 (stereo not drawn) [Example 156, dihydrochloride]
3. COc1cc(C)c(S(=O)(=O)N2CCCCC2COCC(=O)N2CCN(C)CC2c2ccccc2)c(C)c1 (stereo not drawn)
4. COc1cc(C)c(S(=O)(=O)N2CCCCC2COCC(=O)N2CCC(CCN3CCCCC3)CC2)c(C)c1 (stereo not drawn)

result:
1. 101%
2. 108%
3. 22.9%
4. 106%

###

- testedSystem: B1R receptor of the rat (Rattus norvegicus, UniProt P97583)
- Construct: host or cells: CHO K1 cells (Chinese hamster ovary), stably transfected
- Sequence (P97583 1-337): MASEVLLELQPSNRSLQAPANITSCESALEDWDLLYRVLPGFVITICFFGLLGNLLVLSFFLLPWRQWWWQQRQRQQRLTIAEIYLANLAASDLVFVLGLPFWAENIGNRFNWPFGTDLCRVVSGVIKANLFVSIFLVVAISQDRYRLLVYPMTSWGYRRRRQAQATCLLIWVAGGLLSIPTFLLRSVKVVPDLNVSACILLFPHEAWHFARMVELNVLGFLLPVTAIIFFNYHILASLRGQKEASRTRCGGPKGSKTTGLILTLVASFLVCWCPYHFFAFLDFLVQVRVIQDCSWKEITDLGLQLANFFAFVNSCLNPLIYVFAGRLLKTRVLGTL
- assayMethodText: Functional study on the bradykinin receptor 1 (B1R), FLIPR Ca2+ assay, rB1R cells
- Format: cell-based
- reportedConditions: CHO-K1, test substance 10 μM, agonist Des-Arg9-bradykinin 100 nM, % inhibition compared with the maximum achievable inhibition, read-out: B1R Antagonism, rat [10 μM] % Inhibition
metricName: inhibition at 10 µM (%)
Answers are plain numbers, in %.

// input: 4 compounds below; output: inhibition at 10 µM for each
1. Cc1ccc(C)n1CCN1CCN(C(=O)COCC2CCCCN2S(=O)(=O)c2c(Cl)cccc2Cl)CC1 (stereo not shown)
2. COc1ccc(N2CCN(C(=O)COCC3CCCCN3S(=O)(=O)c3c(Cl)cccc3Cl)CC2)cc1 (stereo not shown)
3. COc1cc(C)c(S(=O)(=O)N2CCCCC2COCC(=O)N2CCC(c3ccncc3)CC2)c(C)c1 (stereo not shown)
4. CN(C)CCCN1CCN(C(=O)COCC2CCCN2S(=O)(=O)c2c(Cl)cccc2Cl)CC1 (stereo not shown)

result:
92
100
98.2
103
